These data points were gathered from ChEMBL document CHEMBL1121812.

Stimulation: recorded values
# Tested on: pyruvate dehydrogenase (Rattus norvegicus)
# assay.protocol: Tested for pyruvate oxidation in rat diaphragm, measured as % conversion of [14C]pyruvate to 14CO2 at 5 mM concentration

| molecule | Stimulation, % |
| --- | --- |
| COc1ccc(C(N)C(=O)O)cc1 (stereo in doubt; D-28) | -14 |
| CSc1ccc(C(N)C(=O)O)cc1 (racemic) | 28 |
| CSc1ccc(C(=O)C(=O)O)cc1 | 154 |
| CN(C)c1ccc(C(=O)C(=O)O)cc1 | 16 |
| CCSc1ccc(C(N)C(=O)O)cc1 (racemic) | 24 |
| COc1ccccc1C(=O)C(=O)O | -2 |

* * *

# target.desc: Pyruvate dehydrogenase kinase (Rattus norvegicus) (UniProt Q63065+A6IPZ9+Q64536+O54937)
# assay.protocol: Pyruvate dehydrogenase active/ Pyruvate dehydrogenase total was measured by sc administering the DCA in rat at a dose of 1.2 mmol/kg
# Type: functional, organism-based
measure: PDH active/PDH total (%)

| compound | measure | unit.of.measure | numeric.value |
| --- | --- | --- | --- |
| C=CCc1cc(C(=O)C(=O)O)ccc1O | PDH active/PDH total | % | 90 |
| Cc1cc(C(=O)C(=O)O)ccc1O | PDH active/PDH total | % | 89 |
| COc1ccc(C(N)C(=O)O)cc1 (stereo in doubt; L-27) | PDH active/PDH total | % | 90 |
| NC(C(=O)O)c1ccc(Cl)cc1 (centres undefined) | PDH active/PDH total | % | 90 |

* * *

# target.desc: Pyruvate dehydrogenase kinase (Rattus norvegicus) (UniProt Q63065+A6IPZ9+Q64536+O54937)
# assay.protocol: Percent Stimulation of pyruvate oxidation in rat diaphragm was measured at 2 mM concentration of DCA (dichloroacetic acid)
# Type: functional, tissue-based
Stimulation: recorded values

| molecule | Stimulation, % |
| --- | --- |
| COc1ccccc1C(=O)C(=O)O | 163 |
| CCSc1ccc(C(=O)C(=O)O)cc1 | 158 |
| C=CCc1cc(C(=O)C(=O)O)ccc1O | 120 |
| CSc1ccc(C(=O)C(=O)O)cc1 | 101 |
| CCCCSc1ccc(C(=O)C(=O)O)cc1 | 200 |
| CCS(=O)(=O)Nc1ccc(C(=O)C(=O)O)cc1 | 100 |
| CSc1ccc(C(N)C(=O)O)cc1 (racemic) | 132 |
| O=C(O)C(=O)c1ccc(O)cc1 | 142 |
| NC(C(=O)O)c1ccc(Cl)cc1 (centres undefined) | 99 |
